test system: HeLaNRF1/c4 reporter cells; experiment: Resazurin conversion assay in HeLaNRF1/c4 reporter cells; assay type: cell-based; conditions: test compounds 30 μM and 60 μM, long treatment
metric: resazurin conversion

Oc1ccc(C=Cc2cc(O)cc(O)c2)cc1 [resveratrol, Resveratrol, reference compound] | moderate reduction
NC(=O)c1ncn([C@@H]2O[C@H](CO)[C@@H](O)[C@H]2O)c1N [AICAR, reference compound] | moderate reduction

Data origin: patent US20220249525A1
